Literature Ki values, system: UniProt P41145.
Give the value, in units of nM, as a plain number.

As a guide, the following entries are already answered.
compound | testedOn | scaleUnit | Ki
N[C@H](c1cccc(Cl)c1)[C@@H]1CCN1C(c1cccc(Cl)c1)c1cccc(Cl)c1 | UniProt P41145 | nM | 6040
CCCCC(c1cc(F)cc(F)c1)N1CC[C@H]1[C@@H](N)c1cccc(Cl)c1 (stereo not given in full) | UniProt P41145 | nM | 6490
COc1ccc(CCN(CCCc2ccccc2)CCc2ccc3c(c2)OCO3)cc1OC | UniProt P41145 | nM | 363

// assay UniProt P41145, entry CC1(C)CN(Cc2ccc(Oc3ccc(C(N)=O)cn3)cc2)C1c1ccccc1 (racemic) , Ki value = 1.41

The compound "N[C@@H](c1cccc(Cl)c1)[C@@H]1CCN1C(c1ccccc1)c1ccccc1" on UniProt P41145: Ki was 1230

* * *

From various publications: Ki for UniProt:P41145.
Just the number in nM, nothing appended.

compound | Ki, nM
O=C(Nc1ccccc1)N1CCC(c2ccccc2)(c2nccn2C(=O)c2ccccc2)CC1 | 1190
CN(Cc1cccnc1)[C@H]1C2C3CC4C5C3CC2C5C41 (stereo not given in full) | 1660
NC(=O)c1cccc(OC2CCN(CC3CC3)CC2)c1 | 146

Bench note, UniProt:P41145: entry "Cc1cc(C)cc([C@@H]2CCCN2Cc2ccc(Oc3ccc(C(N)=O)cc3F)cc2)c1" , its Ki = 0.8

* * *

Published Ki for Kappa-type opioid receptor (Homo sapiens, UniProt P41145), assembled from different documents, is shown next.
Output spec: scalar in nM, unitless text.

compound | scaleUnit | Ki
COc1nc(NCCCN2CCOCC2)nc(OC)c1NC(=O)c1ccc(Oc2cc3c(cc2C)CCC3(C)C)o1 | nM | 1960
COC(=O)C(Cc1cccc(C)c1I)NC(=O)CNCc1ccccc1 (stereo not given) | nM | 123
NC(=O)c1ccc(Oc2ccc3c(c2)CCN(Cc2ccccc2)C3)nc1 | nM | 2150
O=C1C[C@@H]2CCN(Cc3nccs3)[C@@H]3CCC[C@@H]([C@@H]23)[C@H]1Cc1ccccc1 | nM | 1400
Cl.Cn1c(=O)[nH]c2c([nH]c(=O)n2C)c1=N | nM | 1800
CC(=O)N(Cc1ccccc1O[11CH3])c1cnccc1Oc1ccccc1 | nM | 2200

Entry "N[C@H](c1cccc(Cl)c1)[C@@H]1CCN1C(c1ccc(F)cc1)c1ccc(F)cc1" ; assay system Kappa-type opioid receptor (Homo sapiens, UniProt P41145); Ki recorded at 2240

// compound "O=C(Nc1cccc(NC(=O)c2cccc(N3CCCCC3)c2)c1)c1cccc(OC2CCN(CC3CC3)CC2)c1" , assay Kappa-type opioid receptor (Homo sapiens, UniProt P41145), Ki value: 0.5

Observed Ki on Kappa-type opioid receptor (Homo sapiens, UniProt P41145), entry "COc1cccc(Cn2nc(CNCc3cccc(OCc4ccccc4)c3)c3c4cc(OC)c(OC)cc4c(-c4ccccc4Cl)nc32)c1" , equals 100

* * *

Multi-source literature compilation: pKi on Kappa-type opioid receptor (Homo sapiens).
// pKi is dimensionless: -log10 of concentration (M)

// solved cases for pKi follow
compound | pKi
CCOC(=O)[C@]12C[C@@H]1[C@@H](n1ccc3c(NC)nc(C#Cc4ccc(Cl)s4)nc31)[C@H](O)[C@@H]2O | 7.38
CCCN1CC[C@H]2CC(=O)[C@H](Cc3ccccc3)[C@H]3CCC[C@@H]1[C@H]23 | 5.44
N[C@@H](c1cccc(C(F)(F)F)c1)[C@@H]1CCN1C(c1ccccc1)c1ccccc1 (stereo in doubt; (+)-1a) | 5.45
O=C(Nc1ccc(F)cc1)N1CCC(c2ccccc2)(c2nccn2Cc2ccccc2)CC1 | 6.83
N[C@H](c1cccc(Cl)c1)[C@@H]1CCN1C(c1ccc(Br)cc1)c1ccc(Br)cc1 | 5.83

Test item "NC(=O)c1ccc(Oc2ccc3c(c2)CCCN(CCCC2CCCCC2)C3)nc1" ; Kappa-type opioid receptor (Homo sapiens); reported pKi was 6.15

Tested on Kappa-type opioid receptor (Homo sapiens): C1C2C3CC4C2C2C1C3[C@H](NCC13C5C6C7C5C1C7C63)C42 (stereo partly drawn) . Observed pKi: 6.09

The value of pKi recorded for "CC(C)(C)CCN1CCCc2cc(Oc3ccc(C(N)=O)cn3)ccc2C1" when tested on Kappa-type opioid receptor (Homo sapiens) reads 7.14

The compound COc1cc(CC2NC(=O)CN(Cc3ccccc3)C2=O)c(I)c(OC)c1 (stereo not drawn) , tested on Kappa-type opioid receptor (Homo sapiens), showed pKi of 6.29

Recorded pKi for "COc1cccc(NC(=O)N2CCC(c3ccccc3)(c3nccn3Cc3ccccc3)CC2)c1" on Kappa-type opioid receptor (Homo sapiens) was 6.82

* * *

# literature pull: UniProtKB P41145 log10 Ki
All values: base-10 log of Ki in nM.

In the examples that follow, each entry is paired with its recorded log10 Ki.
molecule | readoutLabel | measuredValue
COCC(=O)N1CCC(c2ccccc2)(c2nccn2Cc2ccccc2)CC1 | log10 Ki | 2.79
COC(=O)C(Cc1cccc(OC)c1I)NC(=O)CNCc1ccccc1 (stereo unspecified) | log10 Ki | 2.44

Reported log10 Ki of "COc1cccc(Cn2ccnc2C2(c3ccccc3)CCN(C(=O)Nc3ccccc3)CC2)c1" : 3.31

Consider COC(=O)C(Cc1cccc(OC)c1I)NC(=O)CCNCc1ccccc1 (stereo unspecified) . Its measured log10 Ki is 3.09

* * *

# Ki against Kappa-type opioid receptor (Homo sapiens, UniProt P41145), merged from multiple literature sources
# Sequence (P41145 whole entry): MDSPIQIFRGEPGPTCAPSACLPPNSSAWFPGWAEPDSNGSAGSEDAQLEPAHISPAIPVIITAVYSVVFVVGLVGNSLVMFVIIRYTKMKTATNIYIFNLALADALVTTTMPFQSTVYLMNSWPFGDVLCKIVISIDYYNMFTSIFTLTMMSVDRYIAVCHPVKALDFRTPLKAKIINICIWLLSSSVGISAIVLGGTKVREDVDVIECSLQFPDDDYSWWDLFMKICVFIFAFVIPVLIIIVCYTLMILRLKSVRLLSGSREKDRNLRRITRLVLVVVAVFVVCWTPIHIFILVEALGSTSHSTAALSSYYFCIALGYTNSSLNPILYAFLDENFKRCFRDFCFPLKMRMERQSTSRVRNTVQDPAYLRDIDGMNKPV
Only the number, expressed in nM, is required.

compound | measuredValue
Cn1c(N2CCC(c3ccccc3)(c3nccn3Cc3ccccc3)CC2)nc2ccccc21 | 40
CN(C(=O)N1CCC(c2ccccc2)(c2nccn2Cc2ccccc2)CC1)c1ccccc1 | 397
COc1ccc(C2CCCN2Cc2ccc(Oc3ccc(C(=O)NO)cc3)cc2)cc1 (centres undefined) | 180
CCN(CC)CCCC(C)Nc1cnc(C(=O)Nc2cc(F)cc3cccnc23)cn1 (centres undefined) | 713

We next turn to a different compound, shown below.
The recorded Ki for entry CCCCCCC(c1ccccc1)N1CC[C@H]1[C@@H](N)c1cccc(Cl)c1 (some centres undefined) equals 1940

* * *

Collected from the literature: pKi of various molecules toward UniProtKB P41145.
When answering, recall that pKi equals minus log10 of the concentration in mol/L, and write that number alone.

Solved cases below.
molecule | measuredValue
O=C(Nc1cccc(NC(=O)c2cccc(N3CCOCC3)c2)c1)c1cccc(OC2CCN(CC3CC3)CC2)c1 | 9.30
NC(=O)c1ccc(Oc2ccc(CNCc3ccccc3)cc2)nc1 | 8.75
O=C1C[C@@H]2CCN(CC3CCCCC3)[C@@H]3CCC[C@@H]([C@@H]23)[C@H]1Cc1ccccc1 | 5.91

// below: pKi requested for another molecule
UniProtKB P41145 pKi of "Cc1ccc([C@H](N)[C@@H]2CCN2C(c2ccccc2)c2ccccc2)cc1F" is 6.82

* * *

// note: pKi values for Kappa-type opioid receptor (Homo sapiens, UniProt P41145) were reported in different studies
In simple prose, pKi is minus the logarithm base ten of a concentration in moles per litre.

Please review the entries below; each comes with its answer.
compound | pKi
NC(=O)c1ccc(Oc2ccc(CN3CCCC3c3ccccc3)cc2)nc1 (racemic) | 8.04
OC12CC3CC(CC(C3)N1Cc1cccc(F)c1)C2 (racemic) | 5.92

pKi reading for CCC(c1ccccc1)N1CC[C@H]1[C@H](N)c1cccc(Cl)c1 (stereo not given in full) : 5.11

Entry "Cc1ccc(C(c2ccc(C)cc2)N2CC[C@H]2[C@H](N)c2cccc(Cl)c2)cc1" ; pKi = 5.73

* * *

Compiled literature Ki, tested on Kappa-type opioid receptor (Homo sapiens, UniProt P41145).

// below: answered compounds
compound | Ki
COc1ccc(NC(=O)c2ccc(-c3ccc(-c4noc(C)n4)cc3C)cc2)cc1N1CCN(C)CC1 | > 10 µM
CCCCCCCN1CC[C@H]2CC(=O)[C@H](CC)[C@H]3CCC[C@@H]1[C@H]23 | > 10 µM
COc1ccc(NC(=O)N2CCN(c3ccccc3OC)CC2)cc1N1CCN(C)CC1 | > 10 µM
CC(=O)N[C@H](Cc1c(C)[nH]c2ccccc12)C(=O)N[C@@H](Cc1ccccc1)C(=O)NCC(N)=O | > 100 µM
CN1CCc2c(c3cccc4c3n2CCc2ccccc2-4)C1 | > 10 µM
COc1cccc(CC2NC(=O)CCN(Cc3ccccc3)C2=O)c1I (stereo not drawn) | > 10 µM
CCCN1CC[C@H]2CC3=Nc4ccccc4[C@]3(CC)[C@H]3CCC[C@@H]1[C@H]23 | > 10 µM

Now turn to the next compound.
Let me check: "Cc1nn(-c2ncccc2-c2ncc[nH]2)cc1CN1CCC2(CC1)OCC(F)(F)c1cc(Cl)sc12" , system Kappa-type opioid receptor (Homo sapiens, UniProt P41145), measured Ki is > 0.375 µM
